Would you kindly list fold change (FC) for each of these compounds?
Molecular target: Vitamin D3 receptor (Homo sapiens) (UniProt P11473)
Sequence (whole entry): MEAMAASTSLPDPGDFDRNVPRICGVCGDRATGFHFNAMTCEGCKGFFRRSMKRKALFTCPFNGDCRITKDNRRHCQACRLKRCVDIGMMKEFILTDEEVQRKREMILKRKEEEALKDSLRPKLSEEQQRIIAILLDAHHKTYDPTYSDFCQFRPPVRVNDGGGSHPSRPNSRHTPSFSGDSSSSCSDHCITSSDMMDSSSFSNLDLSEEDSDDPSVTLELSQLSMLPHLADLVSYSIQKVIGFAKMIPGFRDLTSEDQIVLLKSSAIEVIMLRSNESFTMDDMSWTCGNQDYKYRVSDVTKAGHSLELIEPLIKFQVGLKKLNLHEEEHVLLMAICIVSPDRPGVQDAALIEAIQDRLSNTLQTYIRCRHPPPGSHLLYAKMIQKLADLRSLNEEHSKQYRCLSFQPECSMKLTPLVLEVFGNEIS
Assay: Binding affinity to VDR (unknown origin) after 30 mins by ultrafiltration LC-MS/MS analysis relative to 6-(6-aminohexyl)-5H-indeno[1,2-c]isoquinoline-5,11(6H)-dione
Give bare numbers.

NCCCCCCn1c2c(c3ccccc3c1=O)C(=O)c1ccccc1-2 :: 1
NCCCn1c2c(c3ccc(N)cc3c1=O)Cc1ccccc1-2 :: 0.151
CCOC(=O)CNc1ccc2c3c(n(CCCN)c(=O)c2c1)-c1ccccc1C3=O :: 0.0162

For each listed entry, give its fold change (FC).
1. NCCCCn1c2c(c3ccccc3c1=O)C(=O)c1ccccc1-2
2. CN(C)CCCn1c2c(c3ccc(N)cc3c1=O)C(=O)c1ccccc1-2
3. NCCCCCn1c2c(c3ccccc3c1=O)C(=O)c1ccccc1-2

(A)
1. 0.353
2. 0.214
3. 0.838

(Q) fold change (FC) for NCCCn1c2c(c3ccccc3c1=O)C(=O)c1ccccc1-2 ?
(A) 0.427
